- System: EKVX
- protocol summary: NCI tumour cell line growth inhibition, 48 h
Active and inactive are the calls of the source. No stated cut-off is given here; in the data, active = GI50 up to about 1.1 µM and inactive = higher.
measured metric: GI50

{"columns": ["compound", "target or test system", "measured metric", "measured"],
 "data": [
  ["C[Si](C)(C)OC1(C#N)c2ccccc2CCCC12CCCC2 (stereo unspecified)", "EKVX", "GI50", "31.3 µM (inactive)"],
  ["COc1cc2nc(-c3ccccc3)cc(O)c2c(OC)c1OC", "EKVX", "GI50", "> 100 µM (inactive)"],
  ["CCN(CC)CCNc1n[n+]([O-])c2ccccc2[n+]1[O-]", "EKVX", "GI50", "12.7 µM (inactive)"],
  ["CC1(C)CC(=O)C(C(=O)C(=O)NC2=C(Cl)C(=O)c3ccccc3C2=O)C(=O)C1", "EKVX", "GI50", "> 100 µM (inactive)"],
  ["CCN1CCC(C)OP1(=O)Cc1ccccc1 (stereo unspecified)", "EKVX", "GI50", "> 100 µM (inactive)"],
  ["O=C(NCCCCCCNC(=O)c1cccc2ccccc12)c1cccc2ccccc12", "EKVX", "GI50", "20.5 µM (inactive)"],
  ["CCN(CC)c1cc2c3c(c1)CCCN3CCC2", "EKVX", "GI50", "> 10 µM (inactive)"],
  ["Nc1cc2[nH]c(=O)c3cc(Cl)ccc3c2cc1Cl", "EKVX", "GI50", "2.52 µM (inactive)"],
  ["N=C(N)c1ccc(/N=N\\c2c(O)c(C(=O)Nc3ccccc3)cc3ccccc23)cc1", "EKVX", "GI50", "17 µM (inactive)"],
  ["Cc1c(C(Cc2ccccc2N(C)C(=O)/C=C\\C(=O)O)c2c[nH]c3ccccc23)c2ccccc2n1C (stereo unspecified)", "EKVX", "GI50", "16.3 µM (inactive)"],
  ["Cc1nc(Nc2ccccc2Cl)sc1C(=O)CC(=O)C(=O)Nc1c(Cl)cccc1Cl", "EKVX", "GI50", "17.9 µM (inactive)"]
]}

* * *

- Tested on: MOLT-4
- protocol summary: NCI tumour cell line growth inhibition, 48 h
Active and inactive are the calls of the source. Cut-off read from the data, not from the text of the source: active = GI50 up to about 1.1 µM and inactive = higher.
Labels: T for active, F for inactive

{"columns": ["compound", "label"],
 "data": [
  ["CC1(C)OC[C@@H](/C=C\\CCO[Si](c2ccccc2)(c2ccccc2)C(C)(C)C)N1C(=O)c1ccccc1", "F"],
  ["COC(=O)[C@]12CC[C@H]3CN(C(=O)OCc4ccccc4)[C@H]([C@H]31)[C@H](c1ccco1)N2S(=O)(=O)c1ccc(C)cc1", "F"],
  ["O=c1c2cc(I)ccc2nc(SCc2nnco2)n1Cc1ccccc1", "T"],
  ["CC(C)C1COC(c2cccc(C3=N[C@@H](C(C)C)CO3)n2)=N1 (some centres undefined)", "F"],
  ["Clc1nc(Cl)c(Cl)c(-c2ccccc2)n1", "F"],
  ["FC(F)(F)c1ccc2c(c1)nc(-c1ccccc1)n2CC1CCCN2CCCCC12 (centres undefined)", "F"],
  ["[N-]=[N+]=NC1CC(n2cc(COCC(F)(F)F)c(=O)[nH]c2=O)OC1CO (centres undefined)", "F"],
  ["C=C1c2[nH]c3ccccc3c2CC(C(=O)O)N1C(O)c1ccc(S(=O)(=O)O)cc1 (centres undefined)", "F"],
  ["O=C1C[C@@H]2CCCC[C@@H]2C12SCCS2", "F"],
  ["CCO/N=C\\c1ccc2oc(-c3ccccc3)cc(=O)c2c1", "T"],
  ["CN(C)c1ccc(/C=C2\\N=C(c3ccccc3)N(c3ccc4c(c3)Sc3cc(N5C(=O)/C(=C/c6ccc(N(C)C)cc6)N=C5c5ccccc5)ccc3N4)C2=O)cc1", "F"],
  ["CCOC(=O)CCC(NC(=O)c1ccc(Nc2nc3cc(C(F)(F)F)ccc3nc2-c2ccccc2)cc1)C(=O)OCC (centres undefined)", "F"],
  ["O=C(COc1ccc(Cl)cc1Cl)N/N=C/C=C/c1ccc([N+](=O)[O-])o1", "F"],
  ["COC1C2C[C@@H](O)CCC2C(C(=O)OCCl)C[C@H]1O (some centres undefined)", "F"],
  ["C[C@]12Cc3cnc(-c4ccccc4)nc3C[C@@H]1CC[C@@H]1[C@@H]2CC[C@@]2(C)[C@H]1CC[C@]2(C)O", "F"],
  ["N#Cc1cccc(N2C(=O)c3c(c(-c4ccccc4)c(-c4ccc(Sc5ccc(-c6c(-c7ccccc7)c7c(c(-c8ccccc8)c6-c6ccccc6)C(=O)N(c6cccc(C#N)c6)C7=O)cc5)cc4)c(-c4ccccc4)c3-c3ccccc3)C2=O)c1", "F"],
  ["CCOC(=O)Cn1c(=O)n(C)c(=O)c2c1ncn2Cc1ccccc1", "F"],
  ["COC(=O)[C@@H](NC(=O)[C@H](N)Cc1ccc(N(CCCl)CCCl)cc1)C(C)C", "T"],
  ["CC(C)(C)c1cc(CCC(=O)Nc2ccc(Cl)cc2)nc(S)n1", "F"],
  ["CCSc1c2ccccc2c(-c2nc(F)nc(F)n2)n1CCc1ccccc1", "F"],
  ["CC(C)=CCC/C(=C/CC/C(C)=C/CCc1ccoc1)C(=O)O", "F"],
  ["C=CC(Br)(CBr)CCC(Br)C(C)(C)Cl (centres undefined)", "T"],
  ["CC(C)(C)OC(=O)NC(CCC(=O)OCc1ccccc1)C(=O)NCCCO (centres undefined)", "F"],
  ["Nc1ccc2c(c1)Oc1c(F)c(F)cc3c(=O)c(C(=O)O)cn-2c13", "F"],
  ["O=CCCn1[nH]c(=O)ccc1=O", "F"],
  ["O=c1c2ccccc2n2c(S)nnc2n1-c1ccccc1", "F"],
  ["COc1ccc2[nH]c3c(O)nncc3c2c1", "F"],
  ["C1=CC2C=CC(C=C1)P2c1ccccc1 (centres undefined)", "F"],
  ["COCC12CC(CC1=O)C1C2ON2c3ccccc3C(=O)C12c1ccccc1 (centres undefined)", "F"],
  ["CN1N=C(c2ccccc2)C(C(c2ccccc2[N+](=O)[O-])C2C(=O)N(C)N=C2c2ccccc2)C1=O (centres undefined)", "F"],
  ["COC(=O)[C@H](Cc1c[nH]c2ccccc12)NP(=O)(OCCC#N)OCC1OC(n2cc(C)c(=O)[nH]c2=O)CC1N=[N+]=[N-] (some centres undefined)", "F"],
  ["Cc1ccc(/N=N/c2ccc(O)c(CN(C)C)c2)cc1", "F"],
  ["Cc1c(C(Cc2ccccc2N(C)C(=O)/C=C\\C(=O)O)c2c[nH]c3ccccc23)c2ccccc2n1C (centres undefined)", "F"],
  ["OC[C@H]1N[C@H](CO)[C@@H](O)[C@H]1O", "F"],
  ["CC(=O)Nc1cc(C(=O)Nc2cc(C(=O)Nc3cc(C(=O)Nc4cc(C(=O)Nc5cc(C(=O)NCCC(=O)NCCCN(C)C)n(C)c5)n(C)c4)n(C)c3)n(C)c2)n(C)c1", "F"],
  ["O=C(Nc1ccccc1C(=O)O)/C(=C/c1ccccc1)NC(=O)c1ccccc1", "F"],
  ["CCOC(=O)C1(C/C=C/CCl)CCCC1=O (centres undefined)", "F"],
  ["CN1CCCC2C(c3ccccc3)C(C3=NCCCC3)C(c3ccccc3)CC21 (centres undefined)", "F"],
  ["COC(=O)C12C3C4C1C1C2C3C41C(=O)NC(C)(C)CC(=O)O (centres undefined)", "F"]
]}

All values here come from ChEMBL document CHEMBL1201862.
